# study system: Histamine H3 receptor (Rattus norvegicus, UniProt Q9QYN8)
# Sequence (Q9QYN8 whole entry): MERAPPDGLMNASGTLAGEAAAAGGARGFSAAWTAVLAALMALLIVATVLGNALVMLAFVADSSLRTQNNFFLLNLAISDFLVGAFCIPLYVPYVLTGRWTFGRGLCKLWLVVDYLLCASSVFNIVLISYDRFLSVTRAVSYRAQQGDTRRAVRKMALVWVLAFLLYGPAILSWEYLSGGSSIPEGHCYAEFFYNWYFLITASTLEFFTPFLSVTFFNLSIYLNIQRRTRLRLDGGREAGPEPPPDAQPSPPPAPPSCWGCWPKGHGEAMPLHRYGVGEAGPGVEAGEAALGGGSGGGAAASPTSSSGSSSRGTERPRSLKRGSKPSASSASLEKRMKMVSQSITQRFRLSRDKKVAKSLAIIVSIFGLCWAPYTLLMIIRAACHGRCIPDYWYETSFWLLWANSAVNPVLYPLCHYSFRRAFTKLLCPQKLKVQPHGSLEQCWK
# protocol details: Displacement of [3H]-R-alpha-ethylhistamine from rat histamine H3 receptor expressed in HEK293 cells after 45 mins by liquid scintillation spectrometry
# Type: cell-based
Quick reference: Ki of the listed items.
Entry rule: numbers only, all in nM.

Worked examples follow.
CNC(=O)c1ccc(Oc2ccc3c(c2)CCN(C2CCC2)CC3)nc1    0.676
O=C1CCCN1c1ccc(Oc2ccc3c(c2)CCN(C2CCC2)CC3)nc1    0.148

Alright, here's another compound for you.
Incoming: Query Ki on Histamine H3 receptor (Rattus norvegicus, UniProt Q9QYN8) for "CNC(=O)c1cnc(Oc2ccc3c(c2)CCN(C2CCC2)CC3)cn1"
Outgoing: 1.12

---

# protocol details: Cmax in po dosed Sprague-Dawley rat
# Format: ADME, organism-based
# Parameters: route oral
# condition details: in vivo
reported endpoint: Cmax (nM)
Your answer is read as nM, so omit the unit and give the number.

Incoming: Param item = "O=C1CCCN1c1ccc(Oc2ccc3c(c2)CCN(C2CCC2)CC3)nc1" ; retrieve measured Cmax.
Outgoing: 348

---

# protocol details: Time dependent inhibition of CYP450 (unknown origin)
# Assay type: ADME, Homo sapiens
reported endpoint: IC50

O=C1CCCN1c1ccc(Oc2ccc3c(c2)CCN(C2CCC2)CC3)nc1    > 10 µM

Incoming: Form field: reported IC50 of "CNC(=O)c1ccc(Oc2ccc3c(c2)CCN(C2CCC2)CC3)nc1"
Outgoing: > 10 µM

Incoming: Would you mind telling me what IC50 value was observed for "CNC(=O)c1cnc(Oc2ccc3c(c2)CCN(C2CCC2)CC3)cn1" ?
Outgoing: > 10 µM

---

# protocol details: Terminal half life in iv dosed Beagle dog
# Assay type: ADME, organism-based, Canis lupus familiaris
# condition details: in vivo, read-out: beta t1/2 (converted)
reported endpoint: half-life (h)
Answer in h, number only, no unit symbol.

Incoming: # query: half-life of entry O=C1CCCN1c1ccc(Oc2ccc3c(c2)CCN(C2CCC2)CC3)nc1 [GSK239512]
Outgoing: 1.7

---

# study system: Histamine H1 receptor (Homo sapiens)
# Sequence (P35367 whole entry): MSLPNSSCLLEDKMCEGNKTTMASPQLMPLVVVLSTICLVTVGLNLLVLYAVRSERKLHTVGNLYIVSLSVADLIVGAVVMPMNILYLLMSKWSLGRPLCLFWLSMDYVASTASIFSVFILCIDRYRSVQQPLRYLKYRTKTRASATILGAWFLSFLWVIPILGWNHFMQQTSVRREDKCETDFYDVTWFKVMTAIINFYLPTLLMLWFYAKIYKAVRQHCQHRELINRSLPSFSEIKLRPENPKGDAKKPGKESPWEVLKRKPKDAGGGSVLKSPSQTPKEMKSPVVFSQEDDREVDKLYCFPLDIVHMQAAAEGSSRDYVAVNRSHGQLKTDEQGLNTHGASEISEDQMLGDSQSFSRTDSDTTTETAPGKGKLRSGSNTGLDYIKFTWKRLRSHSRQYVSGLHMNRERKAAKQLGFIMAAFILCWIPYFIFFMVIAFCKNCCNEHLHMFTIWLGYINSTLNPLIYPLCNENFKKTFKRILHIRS
reported endpoint: pKi
A value of pKi is the negative decimal logarithm of a concentration given in moles per litre.

Incoming: Lab note: need pKi with Histamine H1 receptor (Homo sapiens) for entry "CNC(=O)c1cnc(Oc2ccc3c(c2)CCN(C2CCC2)CC3)cn1" , please look it up.
Outgoing: 5.80

---

Parameter: pKi. Scope: all listed entries.
# study system: Histamine H3 receptor (Rattus norvegicus)
# protocol details: Displacement of [3H]-R-alpha-ethylhistamine from histamine H3 receptor in rat cerebral cortical tissue membranes after 45 mins by liquid scintillation spectrometry
Please note pKi is a logarithmic value: minus log10 of concentration in mol/L. Answer with that number alone.

# example entries with known answers
O=C1OCCN1c1ccc(Oc2ccc3c(c2)CCN(C2CCC2)CC3)nc1    9.10
O=C(c1ccc(Oc2ccc3c(c2)CCN(C2CCC2)CC3)nc1)N1CCCC1    9.20
CNC(=O)c1ccc(Oc2ccc3c(c2)CCN(C2CCC2)CC3)cc1    8.30

Shift focus to the following entry.
Incoming: Looking for the measured pKi of "CNC(=O)c1ccc(Oc2ccc3c(c2)CCN(C2CCC2)CC3)nn1" , can you help?
Outgoing: 8.10

---

# protocol details: Terminal half life in po dosed Sprague-Dawley rat
# Assay type: ADME, organism-based
# condition details: in vivo, read-out: beta t1/2 (converted)
reported endpoint: half-life (h)
The response must be a number in h with no trailing unit.

Incoming: Give its half-life value. Item: O=C1CCCN1c1ccc(Oc2ccc3c(c2)CCN(C2CCC2)CC3)nc1 [GSK239512]
Outgoing: 2.1

These data points were gathered from ChEMBL document CHEMBL3091402.
